STUDY TARGET: MAO-A (Homo sapiens, UniProt P21397)
Construct: purchased Sigma-Aldrich
MEASUREMENT NOTES: MAO-A inhibition assay (recombinant enzyme, kynuramine substrate)
Type: biochemical
CONDITION CONTEXT: 10 µM compound; recombinant MAO-A, kynuramine 0.06 mM; read-out: Residual Activity at 10 µM (%) MAO-A
Field 'label' (enum: True / False). Set to True when remaining activity at 10 µM is strictly under 60%; else False.

                              smiles_code  classification
0     COc1ccc(C(=O)/C=C/c2ccccc2F)c(OC)c1            True
1    COc1ccc(C(=O)/C=C/c2cccc(Cl)c2)cc1OC           False
2    COc1ccc(C(=O)/C=C/c2ccccc2Cl)c(OC)c1            True
3    COc1ccc(C(=O)/C=C/c2ccc(Br)cc2)cc1OC           False
4    COc1ccc(C(=O)/C=C/c2cccc(Br)c2)cc1OC           False
5  COc1ccc(C(=O)/C=C/c2cccc(Cl)c2)c(OC)c1            True

---

STUDY TARGET: MAO-B (Homo sapiens)
Construct: purchased Sigma-Aldrich
MEASUREMENT NOTES: MAO-B inhibition assay (recombinant enzyme, benzylamine substrate)
Format: biochemical
The following compounds are shown together with reported IC50 values.
ASSAY ENDPOINT: IC50

>>> df
                              smiles_code  assay_endpoint  measured_result
0  COc1ccc(C(=O)/C=C/c2ccc(Cl)cc2)c(OC)c1            IC50           589 nM
1      COc1ccc(C(=O)/C=C/c2ccccc2)c(OC)c1            IC50           927 nM

---

STUDY TARGET: BACE-1 (Homo sapiens, UniProt P56817)
Construct: purchased Sigma-Aldrich
Sequence (P56817 46-501): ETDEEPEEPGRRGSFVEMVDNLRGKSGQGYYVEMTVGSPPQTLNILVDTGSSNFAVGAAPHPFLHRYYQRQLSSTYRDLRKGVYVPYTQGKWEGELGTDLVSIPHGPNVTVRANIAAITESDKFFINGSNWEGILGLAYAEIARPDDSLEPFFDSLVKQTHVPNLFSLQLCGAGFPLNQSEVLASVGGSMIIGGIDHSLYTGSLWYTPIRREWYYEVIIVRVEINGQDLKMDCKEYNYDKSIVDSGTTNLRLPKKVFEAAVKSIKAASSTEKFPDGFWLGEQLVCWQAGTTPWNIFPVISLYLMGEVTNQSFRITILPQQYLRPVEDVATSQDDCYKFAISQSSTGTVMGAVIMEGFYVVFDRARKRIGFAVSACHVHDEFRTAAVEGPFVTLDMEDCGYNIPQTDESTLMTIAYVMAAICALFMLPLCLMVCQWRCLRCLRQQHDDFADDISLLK
MEASUREMENT NOTES: BACE-1 inhibition (β-secretase activity detection kit)
Format: biochemical
CONDITION CONTEXT: 10 µM compound; read-out: Residual activity at 10 µM (%) BACE-1
# key: entry, value: remaining activity at 10 µM
ASSAY ENDPOINT: remaining activity at 10 µM (%)

>>> print(df.to_string())
                            smiles_code                           study_target               assay_endpoint  reading_unit  measured_result
0  COc1ccc(C(=O)/C=C/c2ccc(Br)cc2)cc1OC  BACE-1 (Homo sapiens, UniProt P56817)  remaining activity at 10 µM             %              100
1    COc1ccc(C(=O)/C=C/c2ccccc2Cl)cc1OC  BACE-1 (Homo sapiens, UniProt P56817)  remaining activity at 10 µM             %             94.3
2     COc1ccc(C(=O)/C=C/c2ccccc2F)cc1OC  BACE-1 (Homo sapiens, UniProt P56817)  remaining activity at 10 µM             %             99.9
3  COc1ccc(C(=O)/C=C/c2cccc(Br)c2)cc1OC  BACE-1 (Homo sapiens, UniProt P56817)  remaining activity at 10 µM             %             99.7
4  COc1ccc(C(=O)/C=C/c2cccc(Cl)c2)cc1OC  BACE-1 (Homo sapiens, UniProt P56817)  remaining activity at 10 µM             %             99.9
5  COc1ccc(C(=O)/C=C/c2ccc(Cl)cc2)cc1OC  BACE-1 (Homo sapiens, UniProt P56817)  remaining activity at 10 µM             %             99.8

---

Listed here: items and their measured IC50.
STUDY TARGET: MAO-A (Homo sapiens)
Construct: purchased Sigma-Aldrich
Sequence (P21397 1-527): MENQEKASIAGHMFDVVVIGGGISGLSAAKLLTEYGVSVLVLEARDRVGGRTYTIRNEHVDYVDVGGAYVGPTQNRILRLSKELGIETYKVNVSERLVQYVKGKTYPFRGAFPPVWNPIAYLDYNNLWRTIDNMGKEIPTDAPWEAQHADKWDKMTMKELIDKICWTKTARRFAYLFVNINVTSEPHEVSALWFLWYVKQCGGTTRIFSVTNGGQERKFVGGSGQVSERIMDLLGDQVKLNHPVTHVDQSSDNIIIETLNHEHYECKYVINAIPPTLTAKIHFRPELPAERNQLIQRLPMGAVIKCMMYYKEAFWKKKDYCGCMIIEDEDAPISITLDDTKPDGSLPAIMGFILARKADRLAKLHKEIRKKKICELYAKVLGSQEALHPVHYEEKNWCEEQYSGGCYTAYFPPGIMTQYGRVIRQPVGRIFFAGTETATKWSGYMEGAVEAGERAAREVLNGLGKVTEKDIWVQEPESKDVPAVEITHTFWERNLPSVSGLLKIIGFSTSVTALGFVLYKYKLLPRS
MEASUREMENT NOTES: MAO-A inhibition assay (recombinant enzyme, kynuramine substrate)
Format: biochemical
CONDITION CONTEXT: recombinant MAO-A, kynuramine 0.06 mM; read-out: IC50 (µM) MAO-A
ASSAY ENDPOINT: IC50

In [3]: df
Out[3]:
                                    compound  measured_result
 0  COc1ccc(C(=O)/C=C/c2ccccc2F)c(OC)c1 [DM8]          13.4 µM
 1  COc1ccc(C(=O)/C=C/c2ccccc2Cl)cc1OC [DM12]          > 40 µM
 2  COc1ccc(C(=O)/C=C/c2cccc(F)c2)cc1OC [DM19]          > 40 µM
 3  COc1ccc(C(=O)/C=C/c2ccccc2Br)c(OC)c1 [DM5]          12.4 µM
 4   COc1ccc(C(=O)/C=C/c2ccccc2)cc1OC [DM11]          14.3 µM
 5  COc1ccc(C(=O)/C=C/c2ccccc2F)cc1OC [DM18]          > 40 µM
 6  COc1ccc(C(=O)/C=C/c2ccc(Br)cc2)c(OC)c1 [DM7]          4.73 µM
 7  COc1ccc(C(=O)/C=C/c2ccc(Cl)cc2)cc1OC [DM14]          > 40 µM
 8  COc1ccc(C(=O)/C=C/c2cccc(Br)c2)cc1OC [DM16]          > 40 µM
 9  COc1ccc(C(=O)/C=C/c2ccc(F)cc2)cc1OC [DM20]          > 40 µM
10  COc1ccc(C(=O)/C=C/c2ccccc2Br)cc1OC [DM15]          > 40 µM
11  COc1ccc(C(=O)/C=C/c2ccccc2Cl)c(OC)c1 [DM2]          6.29 µM

---

STUDY TARGET: MAO-B (Homo sapiens, UniProt P27338)
Construct: purchased Sigma-Aldrich
Sequence (P27338 whole entry): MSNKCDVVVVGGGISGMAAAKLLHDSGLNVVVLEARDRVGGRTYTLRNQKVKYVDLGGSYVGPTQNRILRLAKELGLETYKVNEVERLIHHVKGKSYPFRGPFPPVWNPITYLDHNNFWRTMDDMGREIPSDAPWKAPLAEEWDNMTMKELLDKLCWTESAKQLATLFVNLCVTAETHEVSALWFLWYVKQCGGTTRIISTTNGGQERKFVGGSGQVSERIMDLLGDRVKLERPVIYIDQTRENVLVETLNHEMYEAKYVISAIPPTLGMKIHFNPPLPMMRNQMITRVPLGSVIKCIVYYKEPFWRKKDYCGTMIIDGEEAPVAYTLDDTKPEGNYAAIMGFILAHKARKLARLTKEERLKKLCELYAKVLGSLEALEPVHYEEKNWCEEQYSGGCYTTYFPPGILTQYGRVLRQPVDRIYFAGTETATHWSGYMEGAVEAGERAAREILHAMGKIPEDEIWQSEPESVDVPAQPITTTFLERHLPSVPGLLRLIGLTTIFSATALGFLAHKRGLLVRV
MEASUREMENT NOTES: MAO-B inhibition assay (recombinant enzyme, benzylamine substrate)
Format: biochemical
CONDITION CONTEXT: IC50 MAO-A divided by IC50 MAO-B
ASSAY ENDPOINT: SI (selectivity index for MAO-B as compared to MAO-A)

                                   molecule  measured_result
0  COc1ccc(C(=O)/C=C/c2ccc(Br)cc2)c(OC)c1 [DM7]             5.60
1  COc1ccc(C(=O)/C=C/c2ccc(Cl)cc2)c(OC)c1 [DM4]             7.61
2  COc1ccc(C(=O)/C=C/c2ccc(Cl)cc2)cc1OC [DM14]           >48.02
3  COc1ccc(C(=O)/C=C/c2ccccc2Br)c(OC)c1 [DM5]            77.02
4  COc1ccc(C(=O)/C=C/c2ccc(F)cc2)c(OC)c1 [DM10]             8.14
5  COc1ccc(C(=O)/C=C/c2ccccc2)c(OC)c1 [DM1]            16.61

---

STUDY TARGET: BChE (Equus caballus)
Sequence (P81908 whole entry): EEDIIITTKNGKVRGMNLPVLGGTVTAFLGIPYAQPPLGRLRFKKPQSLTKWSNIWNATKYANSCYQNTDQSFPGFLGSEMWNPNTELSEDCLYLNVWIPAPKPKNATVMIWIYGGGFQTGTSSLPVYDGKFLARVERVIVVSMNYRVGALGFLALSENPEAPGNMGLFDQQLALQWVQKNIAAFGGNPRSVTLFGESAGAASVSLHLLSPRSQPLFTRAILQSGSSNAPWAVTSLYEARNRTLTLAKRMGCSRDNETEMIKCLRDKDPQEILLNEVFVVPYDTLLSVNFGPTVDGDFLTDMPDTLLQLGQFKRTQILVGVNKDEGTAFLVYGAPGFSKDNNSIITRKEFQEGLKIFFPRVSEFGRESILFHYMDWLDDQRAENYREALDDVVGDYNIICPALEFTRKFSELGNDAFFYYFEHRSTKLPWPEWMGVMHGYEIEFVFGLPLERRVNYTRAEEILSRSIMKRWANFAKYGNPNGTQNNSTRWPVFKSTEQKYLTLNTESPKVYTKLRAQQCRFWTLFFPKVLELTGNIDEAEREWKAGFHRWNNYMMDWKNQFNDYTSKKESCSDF
MEASUREMENT NOTES: biochemical
CONDITION CONTEXT: read-out: Residual activity at 10 µM (%) BChE
ASSAY ENDPOINT: remaining activity at 10 µM (%)

                               smiles_code  measured_result
 0  COc1ccc(C(=O)/C=C/c2cccc(Cl)c2)c(OC)c1             69.9
 1    COc1ccc(C(=O)/C=C/c2cccc(Br)c2)cc1OC             91.2
 2    COc1ccc(C(=O)/C=C/c2ccc(Br)cc2)cc1OC             68.9
 3     COc1ccc(C(=O)/C=C/c2ccccc2F)c(OC)c1             85.4
 4   COc1ccc(C(=O)/C=C/c2cccc(F)c2)c(OC)c1             72.5
 5   COc1ccc(C(=O)/C=C/c2ccc(F)cc2)c(OC)c1             92.8
 6    COc1ccc(C(=O)/C=C/c2ccc(Cl)cc2)cc1OC             76.5
 7    COc1ccc(C(=O)/C=C/c2ccccc2Cl)c(OC)c1             64.2
 8        COc1ccc(C(=O)/C=C/c2ccccc2)cc1OC             80.5
 9  COc1ccc(C(=O)/C=C/c2ccc(Cl)cc2)c(OC)c1             80.1
10      COc1ccc(C(=O)/C=C/c2ccccc2Br)cc1OC             55.2
11  COc1ccc(C(=O)/C=C/c2ccc(Br)cc2)c(OC)c1             98.2
12      COc1ccc(C(=O)/C=C/c2ccccc2)c(OC)c1             93.2
13     COc1ccc(C(=O)/C=C/c2ccc(F)cc2)cc1OC             93.1
14  COc1ccc(C(=O)/C=C/c2cccc(Br)c2)c(OC)c1             79.7
15       COc1ccc(C(=O)/C=C/c2ccccc2F)cc1OC             59.5
16    COc1ccc(C(=O)/C=C/c2ccccc2Br)c(OC)c1             60.5
17    COc1ccc(C(=O)/C=C/c2cccc(Cl)c2)cc1OC              100
18      COc1ccc(C(=O)/C=C/c2ccccc2Cl)cc1OC             63.5
19     COc1ccc(C(=O)/C=C/c2cccc(F)c2)cc1OC              103

The values you see were collected from paper PMC9503132.
